tested on: 786-0; assay: NCI tumour cell line growth inhibition, 48 h
Active and inactive are the calls of the source. Rule as the data show it: active = GI50 up to about 1.1 µM and inactive = higher.
Consider the following molecules and their measured GI50 readings.
ENDPOINT LABEL: GI50

INSERT INTO assay_data (molecule, endpoint_label, result) VALUES
  ('CCOC(=O)C1C(=O)CC(C)(O)C(C(=O)OCC)C1c1ccc(OC)cc1 (centres undefined)', 'GI50', '> 100 µM (inactive)'),
  ('COc1cc(C(=O)N(C)N(C)C)cc(OC)c1OC', 'GI50', '> 10 µM (inactive)'),
  ('CC(C)=CCc1c(OC(=O)c2c(C)cc(O)cc2O)cc(CO)c(CO)c1O', 'GI50', '31.4 µM (inactive)'),
  ('CC1=C(C#N)C(=O)N(/N=C/c2ccc(Cl)cc2)C(=O)/C1=c1\o/c(=C2/C(=O)N(/N=C/c3ccc(Cl)cc3)C(=O)C(C#N)=C2C)c2nccnc12', 'GI50', '> 100 µM (inactive)');

----------
test system: EKVX; assay: NCI tumour cell line growth inhibition, 48 h
Activity calls are given as the source filed them. Cut-off read from the data, not from the text of the source: active = GI50 up to about 1.1 µM and inactive = higher.
ENDPOINT LABEL: GI50

INSERT INTO assay_data (molecule, target_entity, result) VALUES
  ('N#CC(C#N)=C1C(=Cc2ccc(OCCCCCCCCCCSSCCCCCCCCCCOc3ccc(C=C4C(=C(C#N)C#N)c5ccccc5C4=C(C#N)C#N)cc3)cc2)C(=C(C#N)C#N)c2ccccc21', 'EKVX', '20.9 µM (inactive)'),
  ('CC(C)c1ccc2c(c1)CCC1C(C)(CN)CCCC21C (stereo unspecified)', 'EKVX', '1.86 µM (inactive)'),
  ('NC(=S)N/C=C1\C(=O)Oc2ccccc2C1=O', 'EKVX', '> 100 µM (inactive)'),
  ('Cn1c2c([N+](=O)[O-])cccc2c(=O)c2c(O)cc3c(c21)C=CC(C)(C)O3', 'EKVX', '6.59 µM (inactive)'),
  ('C=CCn1c(=O)c(C)cn(/C(=C/C(=O)OCC)C(=O)OCC)c1=O', 'EKVX', '14 µM (inactive)'),
  ('O=C(O)C1CCCN(CCc2c[nH]c3ccccc23)C1 (stereo unspecified)', 'EKVX', '> 100 µM (inactive)');

----------
Consider the following compounds and their measured GI50 readings.
test system: HCT-15
ENDPOINT LABEL: GI50 (µM)

INSERT INTO results (compound, scale_unit, reported_relation, recorded_number) VALUES
  ('CCN(CC)Cc1ccc2cccnc2c1O', 'µM', '=', 0.365),
  ('Cc1c(C)c2c(c(N)c1C#N)C(=O)N(OS(=O)(=O)c1ccccc1)C2=O', 'µM', '=', 20.9),
  ('O=C1OCC(O)=C1C(c1ccc(Cl)cc1)c1cc2c(cc1O)OCO2 (stereo unspecified)', 'µM', '>', 100),
  ('O=C(O)C1C2CCC(O2)C1C(=O)N1CCCCC1 (stereo unspecified)', 'µM', '=', 12.1),
  ('COC(=O)C1C=CCC2CCCCC21N1CCCC1 (stereo unspecified)', 'µM', '>', 100),
  ('COC(=O)C1OC(Oc2cc(O)c3c(=O)cc(-c4ccc(O)cc4)oc3c2)C(O)C(O)C1O (stereo unspecified)', 'µM', '>', 100);

----------
tested on: SF-539; assay: NCI tumour cell line growth inhibition, 48 h
Calls of active or inactive are those of the source. Cut-off read from the data, not from the text of the source: active = GI50 up to about 1.1 µM and inactive = higher.
Labels: active, inactive

INSERT INTO measurements (compound, class_assignment) VALUES
  ('COc1c2c(c(O)c3c4c(c(C)cc13)C1OC3(C(OC)OC5CC(C)(O)C(OC6CC(C)(O)C(O)C(C)O6)C(C)O5)OC1C(OC)(O4)C31CO1)C(=O)C(O)CC2OC1CC(C)(O)C(OC(C)=O)C(C)O1 (stereo unspecified)', 'active'),
  ('OCc1ccc(C2CC(c3ccco3)=NN2c2ccccc2)o1 (stereo unspecified)', 'inactive'),
  ('CN(C)CCCNC1=C(Cl)C(=O)c2c(O)ccc(O)c2C1=O', 'inactive'),
  ('CC(C)(CN1CCCCC1)C(=O)CC(SCCS(=O)(=O)O)c1ccc(Cl)cc1 (stereo unspecified)', 'inactive'),
  ('COc1cc(/C=C\c2ccccn2)cc(OC)c1OC', 'inactive'),
  ('Cn1ccc2c(C(=O)c3ccccc3)cccc2c1=O', 'inactive');

----------
Consider the following molecules and their measured GI50 readings.
tested on: M19-MEL; test: NCI tumour cell line growth inhibition, 48 h
Activity calls are given as the source filed them. Cut-off read from the data, not from the text of the source: active = GI50 up to about 1.1 µM and inactive = higher.
ENDPOINT LABEL: GI50

INSERT INTO measurements (molecule, result) VALUES
  ('Cn1cc(NC(=O)c2cc(NC(=O)CCCCCCCCC(=O)Nc3cc(C(=O)Nc4cc(C(=O)NCCC(N)N)n(C)c4)n(C)c3)cn2C)cc1C(=O)NCCC(=N)N', '16.6 µM (inactive)'),
  ('CSC(=N)NNC(=O)CCC(=O)Nc1ccccc1C(F)(F)F', '> 100 µM (inactive)'),
  ('O=C(NC1C2CC3CC(C2)CC1C3)c1cc(/C=C/c2ccccc2)nc(S)n1 (stereo not given)', '> 100 µM (inactive)'),
  ('COc1cc(C(C#N)NNC(=O)c2ccccc2O)ccc1O (stereo not given)', '3.58 µM (inactive)'),
  ('CCOc1ccc(NC(=O)CC2SC(Nc3ccc(C)cc3C)=NC2=O)cc1 (stereo not given)', '> 100 µM (inactive)'),
  ('CCC12C=CCN3CCC4(c5cc(C6(C(=O)OC)CCCCCc7c6[nH]c6ccccc76)c(OC)cc5N(C)C4C(O)(C(=O)OC)C1OC(C)=O)C32 (stereo not given)', '2.51 µM (inactive)'),
  ('COc1ccc(OC)c2c3c(ccc12)C(c1ccccc1)OC3=O (stereo not given)', '45.7 µM (inactive)'),
  ('COC(=O)C1=C(C)N(NC(=O)c2cccc(Cl)c2)C(C)(O)C12CCOC2=O (stereo not given)', '> 100 µM (inactive)'),
  ('CCCCC1=C(Br)C(=C(Br)Br)OC1=O', '2.74 µM (inactive)'),
  ('CCOc1ccc(NC2=NC(=O)C(CC(=O)Nc3ccccc3[N+](=O)[O-])S2)cc1 (stereo not given)', '> 100 µM (inactive)'),
  ('O=C(O)C(C(=O)O)P(=S)(S)c1ccccc1 (stereo not given)', '> 100 µM (inactive)'),
  ('O=c1cccccc1NCCNc1cccccc1=O', '> 100 µM (inactive)'),
  ('CCOC(=O)C(Cc1c[nH]c2cc([N+](=O)[O-])ccc12)NS(=O)(=O)c1ccc2ccccc2c1 (stereo not given)', '17.2 µM (inactive)'),
  ('COC(=O)/C(C)=C(/CCC1(C)OCCO1)O[Si](C)(C)C', '> 100 µM (inactive)'),
  ('CO[C@@]12CC(=O)/C(=C(O)\C=C\c3ccccc3)C(=O)[C@]1(OC)Cc1ccccc1O2', '37.5 µM (inactive)'),
  ('C#CCn1c(=O)c(C#N)c(O)c2cc3ccccc3nc21', '> 100 µM (inactive)'),
  ('CC(C)NC(C)Cc1ccccc1 (stereo not given)', '> 100 µM (inactive)'),
  ('COC(=O)C1CCc2c1c(=O)n1c([nH]c3ccccc31)c2C#N (stereo not given)', '> 100 µM (inactive)'),
  ('O=C(O)c1ccc(S(=O)(=O)c2ccccc2)c([N+](=O)[O-])c1', '> 100 µM (inactive)'),
  ('COc1ccc(NC(=O)CCc2cc(C(C)(C)C)[nH]n2)cc1', '> 100 µM (inactive)');

----------
test system: COLO 205; test: NCI tumour cell line growth inhibition, 48 h
The source made the active and inactive calls. Rule as the data show it: active = GI50 up to about 1.1 µM and inactive = higher.
Labels: 1 (yes) = active, 0 (no) = inactive

INSERT INTO measurements (compound, target_entity, class_assignment) VALUES
  ('O=S1(=O)OCCOS(=O)(=O)C1(Cl)Cl', 'COLO 205', '0 (no)'),
  ('CCOc1ccc(/N=C(/NC(=O)c2ccccc2)SC)cc1', 'COLO 205', '0 (no)'),
  ('O/N=C(\C=N\O)c1ccc2c(c1)Sc1ccccc1O2', 'COLO 205', '0 (no)'),
  ('Cn1ccc2c(C(=O)c3ccccc3)cccc2c1=O', 'COLO 205', '0 (no)'),
  ('O=C(NCC(=O)N1CCCC1C(=O)OC(=O)C1CCCN1C(=O)CNC(=O)OCc1ccccc1)OCc1ccccc1 (stereo not given)', 'COLO 205', '0 (no)'),
  ('Nc1nc(-c2ccccc2)nc2c1[n+]([O-])c1ccccc1[n+]2[O-]', 'COLO 205', '0 (no)'),
  ('O=C(O)c1ccccc1NC(c1ccccc1)c1ccc2cccnc2c1O (stereo not given)', 'COLO 205', '0 (no)'),
  ('C=C=C(C)C(=O)N(C(C)C)C(C)C', 'COLO 205', '0 (no)'),
  ('CCOC(=O)[C@H](CCCNC(=O)OC(C)(C)C)NCc1ccc(OC)c(OC)c1', 'COLO 205', '0 (no)'),
  ('COc1ccc(OC)c2c3c(ccc12)C(c1ccccc1)OC3=O (stereo not given)', 'COLO 205', '0 (no)'),
  ('O=C(O)c1cc(Cl)cc2c1NC1(N2)C(=O)Nc2ccccc21 (stereo not given)', 'COLO 205', '0 (no)'),
  ('O=c1[nH]c(=O)n([C@@H]2O[C@H](CO)[C@@H](O)[C@H]2O)cc1F', 'COLO 205', '1 (yes)'),
  ('CC(C)(C)C1(COC(=O)c2ccc(N)cc2)COC1', 'COLO 205', '0 (no)'),
  ('O=C1c2ccccc2CN1c1ccc(OCCN2CCCCC2)cc1', 'COLO 205', '0 (no)'),
  ('Cc1cc(-c2nc3ccc(F)cc3s2)ccc1NC(=O)[C@H](C)N', 'COLO 205', '0 (no)');
